Where do these numbers come from? They come from ChEMBL document CHEMBL2095176.

Protocol: physchem
Settings: buffer, pH 7.4
Description: GSK_TB: GSK in-house hydrophobicity assay at pH7.4 (logD)
Tick y if logD is 4 or greater. Tick n if logD is less than 4.

[[record]]
compound = "Cc1ccc2nc(C)c(C(=O)NCc3ccco3)n2c1"
label_class = "n"


Quick check: does CC(C)n1ncc2c(C(=O)NCC(c3cccs3)N3CCOCC3)cc(-c3ccccc3)nc21 (stereo unspecified) have logD greater than or equal to 4? y

Check the entry CSc1ccc(-c2nnc(NC(=O)c3ccc(Cl)s3)o2)cc1 : does logD equal or exceed 4? n

Is it the case that COc1ccc(-c2ccc(Nc3cccc(S(=O)(=O)CCNCCc4cccs4)c3)nc2)cn1 has logD reaching or exceeding 4? y

Answer whether logD of c1csc(Cc2nn3c(-c4n[nH]c5c4CCC5)nnc3s2)c1 is greater than or equal to 4. n

Dear colleague, could you confirm whether C[C@@H](NCCc1nc(-c2cn(C)c3ccccc23)no1)C1CCCCC1.Cl has logD at or above 4? y

====

Protocol: physchem
Settings: phosphate buffered saline, pH 7.4
I would appreciate it if you labelled entries t when solubility kinetic is 100 µM or higher, otherwise f.

Consider the worked cases shown below.
[[record]]
compound = "OC1(c2ccccc2)Oc2ccccc2N=C1c1ccccc1 (stereo unspecified)"
label_class = "t"

[[record]]
compound = "O=C(NCc1ccc2c(c1)OCO2)c1c(C(F)(F)F)nc2ccccn12"
label_class = "t"

[[record]]
compound = "Cc1cccc(Cn2ccc(NC(=O)c3ccc4c(c3)OCO4)n2)c1"
label_class = "f"

[[record]]
compound = "Cc1ccc2nc(C(F)(F)F)c(C(=O)NCc3ccc(C)o3)n2c1"
label_class = "t"

[[record]]
compound = "Cc1ccc2nc(C)c(-c3ccn(Cc4ccccc4)n3)n2c1"
label_class = "t"

[[record]]
compound = "Br.CC(C)(C)c1ccccc1OCCCON1C(=N)N=C(N)NC1(C)C"
label_class = "t"

[[record]]
compound = "FC(F)(F)c1nnc2ccc(Cl)nn12"
label_class = "t"

[[record]]
compound = "Cc1ccc2nc(C(F)(F)F)c(C(=O)NCc3ccco3)n2c1"
label_class = "t"

[[record]]
compound = "CCOc1ccc(OCc2ccc(C(=O)NNC(=O)c3ccc([N+](=O)[O-])o3)cc2)cc1"
label_class = "f"

[[record]]
compound = "Cc1cc(/C=C/c2cccc(C(=O)O)c2)cc(Cl)c1OC[C@@H]1CCCN1C"
label_class = "t"


Now take the following compound into account.
Say whether O=C(c1cc2ccccc2o1)N1CCN(Cc2ccc3c(c2)OCO3)CC1 shows solubility kinetic of 100 µM or more. t

====

Protocol: physchem
Settings: octanol/water
Description: GSK_TB: GSK in-house hydrophobicity assay (logP)
Threshold-based label: logP under 5 gives Condition met, logP not under 5 gives Condition not met.

Some entries whose results are on file:
[[record]]
compound = "COc1ccc(-c2cc(=O)c3cc(OCC(=O)OC(C)C)ccc3o2)cc1"
label_class = "Condition not met"

[[record]]
compound = "Br.Cc1cc(C)cc(OCCCON2C(=N)N=C(N)NC2(C)C)c1"
label_class = "Condition met"


Moving on to another compound below.
Given the entry CSc1ccc(-c2nnc(NC(=O)c3ccc(Cl)s3)o2)cc1 , would its reported logP be below 5? Condition not met

====

molecules and their reported logP
Protocol: physchem
Settings: octanol/water
Format: numeric value only, no unit, no commentary.

Reference set (5 entries):
[[record]]
test_smiles = "CCOc1ccc(OCc2ccc(C(=O)NNC(=O)c3ccc([N+](=O)[O-])o3)cc2)cc1"
value_measured = 4.88

[[record]]
test_smiles = "Cc1ccc2nc(C(F)(F)F)c(C(=O)NCc3ccco3)n2c1"
value_measured = 4.48

[[record]]
test_smiles = "Fc1ccc2nc(Nc3nc(-c4ccccn4)cs3)sc2c1"
value_measured = 5.54

[[record]]
test_smiles = "COc1ccc(-c2cc(NC(=O)c3ccc(F)cc3Cl)ccc2OC)cc1"
value_measured = 6.48

[[record]]
test_smiles = "CCc1ccc(S(=O)(=O)Nc2cc(CN3CCN(CCC(C)C)CC3)ccc2C)cc1.O=C(O)C(F)(F)F.O=C(O)C(F)(F)F"
value_measured = 7.74


Specify logP for Cc1cccc(Cn2ccc(NC(=O)c3ccc4c(c3)OCO4)n2)c1 and stop. 5.27

Please give the documented logP of N#Cc1nc(-c2ccccc2F)oc1NCCc1ccccc1 6.63

Please look at this molecule and report its logP: Cc1ccc2nc(C(F)(F)F)c(C(=O)NCc3ccc(C)o3)n2c1 5.18

Fill in logP for record CCN(Cc1ccc2c(c1)OCO2)C(=O)CSc1nc(NC)c2ccccc2n1 4.83
